# System: Mus musculus
# assay-comment: Antiamnesic activity in scopolamine-induced mouse assessed as latency time to enter dark room in training session at 1.0 mg/kg, ip treated 20 mins before training session by passive avoidance test
# Assay type: functional
# condition-description: route intraperitoneal

molecule: CC(C)S(=O)(=O)N1CCN2C(=O)c3ccccc3C2C1 (stereo not given)
u: s
Activity: 16.3

molecule: CC(=O)N[C@H]1CC[C@@H](NS(=O)(=O)c2ccc(F)cc2)CC1
u: s
Activity: 19.1

molecule: CCC(=O)N[C@H]1CC[C@@H](NC(=O)CC)CC1
u: s
Activity: 17.8

molecule: CC(C)S(=O)(=O)Nc1ccc(NS(=O)(=O)c2ccc(F)cc2)cc1
u: s
Activity: 19.1

molecule: CCC(=O)N[C@H]1CC[C@H](NS(=O)(=O)c2ccc(F)cc2)CC1
u: s
Activity: 17.5
